system: U251 CNS; assay: NCI tumour cell line growth inhibition, 48 h
QUANTITY MEASURED: TGI

Exam item: State its TGI for this compound: `CN(C)CCOc1ccc(I)cc1Cc1ccccc1`
Marked response: 27.1 µM

Exam item: Give the reported TGI for this compound. CCOc1ccc(N2C(=O)C3c4[nH]c5ccccc5c4C4CCC(C(C)(C)C)CC4C3C2=O)cc1 (configuration not stated)
Marked response: > 100 µM

Exam item: Provide one value: measured TGI of COc1ccc(-c2oc3cc(O)c(OC)c(O)c3c(=O)c2OC2OC(CO)C(O)C(O)C2O)cc1 (configuration not stated)
Marked response: > 100 µM

Exam item: Complete the entry with TGI for CC(Cc1ccc(Cl)cc1Cl)NO (configuration not stated)
Marked response: > 100 µM

Exam item: Give recorded TGI. `CCOC(=O)c1ncoc1[C@H]1COC(C)(C)O1`
Marked response: > 100 µM

Exam item: Recall and state the measured TGI for `S=c1[nH]nc(COc2ccc(Cl)cc2)o1` .
Marked response: > 100 µM

Exam item: Specify measured TGI for Oc1c(C2=NNC(c3cccs3)C2)ccc2ccccc12 (configuration not stated) .
Marked response: 69.5 µM

Exam item: In one line, give reported TGI of the entry `Cc1cn(CC2=NCCN2)c(=O)[nH]c1=O` .
Marked response: > 100 µM
